System: EGFR(L747-T751del,Sins)
Type: binding
Details: 10 μM
Quantity Kind: Percent control (%)
Hi! Could you send only the number? It should be in %, unit omitted.

1. Cc1ccc(NC(=O)c2ccc(CN3CCN(C)CC3)cc2)cc1Nc1nccc(-c2cccnc2)n1 [Imatinib, reference compound] :: 100
2. Cc1ccc(NC(=O)c2ccc(CN3CCN(C)CC3)cc2)cc1Nc1nccc(-c2cccnc2)[n+]1[Pt-2]1([Cl])[NH2+]C2CCCCC2[NH2+]1 (stereo not shown) :: 76
3. C#Cc1cccc(Nc2ncnc3cc(OCCOC)c(OCCOC)cc23)c1 :: 0.0

Now take the following compound into account.
Task: # get_value(readout= Percent control, system= EGFR(L747-T751del,Sins)) for COc1cc2c(Nc3ccc(Br)cc3F)ncnc2cc1OCC1CCN(C)CC1 [Vandetanib, reference compound]
Output: 0.1

###

Below, each of the molecules is paired with its reported Percent control value.
Molecular target: TXK (Homo sapiens, UniProt P42681)
Construct: purchased DiscoveRx (KINOMEscan service)
Sequence (P42681 whole entry): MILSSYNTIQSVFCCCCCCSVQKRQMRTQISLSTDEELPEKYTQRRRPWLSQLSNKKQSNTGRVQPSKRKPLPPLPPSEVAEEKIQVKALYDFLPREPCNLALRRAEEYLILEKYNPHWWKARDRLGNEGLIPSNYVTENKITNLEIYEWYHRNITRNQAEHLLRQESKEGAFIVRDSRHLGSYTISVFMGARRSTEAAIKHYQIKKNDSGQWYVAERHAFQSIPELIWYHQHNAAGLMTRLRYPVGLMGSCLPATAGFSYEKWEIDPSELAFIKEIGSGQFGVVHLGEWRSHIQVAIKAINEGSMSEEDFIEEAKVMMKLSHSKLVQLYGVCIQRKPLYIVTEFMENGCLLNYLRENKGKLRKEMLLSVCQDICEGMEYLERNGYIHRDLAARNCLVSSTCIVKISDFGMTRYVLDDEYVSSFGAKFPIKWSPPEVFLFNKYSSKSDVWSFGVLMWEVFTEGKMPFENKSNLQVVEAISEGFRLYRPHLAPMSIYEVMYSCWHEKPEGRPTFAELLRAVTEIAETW
Assay type: binding
Details: 10 μM
Hi! Could you send only the number? It should be in %, unit omitted.

1) Cc1ccc(NC(=O)c2ccc(CN3CCN(C)CC3)cc2)cc1Nc1nccc(-c2cccnc2)[n+]1[Pt-2]1([Cl])[NH2+]C2CCCCC2[NH2+]1 (stereo not shown) :: 87
2) COc1cc2c(Nc3ccc(Br)cc3F)[n+]([Pt-2]3([Cl])[NH2+]C4CCCCC4[NH2+]3)cnc2cc1OCC1CCN(C)CC1 (stereo not shown) :: 56
3) Cc1ccc(NC(=O)c2ccc(CN3CCN(C)CC3)cc2)cc1Nc1nccc(-c2cccnc2)n1 [Imatinib, reference compound] :: 100

Now take the following molecule into account.
Task: Look up Percent control for this molecule: C#Cc1cccc(Nc2c3cc(OCCOC)c(OCCOC)cc3nc[n+]2[Pt@SP2-2]([NH3+])([NH3+])[Cl])c1 [2a, cisplatin-erlotinib]
Output: 76

###

Target: EPHA2 (Homo sapiens, UniProt P29317)
Construct: purchased DiscoveRx KINOMEscan
Sequence (P29317 24-976): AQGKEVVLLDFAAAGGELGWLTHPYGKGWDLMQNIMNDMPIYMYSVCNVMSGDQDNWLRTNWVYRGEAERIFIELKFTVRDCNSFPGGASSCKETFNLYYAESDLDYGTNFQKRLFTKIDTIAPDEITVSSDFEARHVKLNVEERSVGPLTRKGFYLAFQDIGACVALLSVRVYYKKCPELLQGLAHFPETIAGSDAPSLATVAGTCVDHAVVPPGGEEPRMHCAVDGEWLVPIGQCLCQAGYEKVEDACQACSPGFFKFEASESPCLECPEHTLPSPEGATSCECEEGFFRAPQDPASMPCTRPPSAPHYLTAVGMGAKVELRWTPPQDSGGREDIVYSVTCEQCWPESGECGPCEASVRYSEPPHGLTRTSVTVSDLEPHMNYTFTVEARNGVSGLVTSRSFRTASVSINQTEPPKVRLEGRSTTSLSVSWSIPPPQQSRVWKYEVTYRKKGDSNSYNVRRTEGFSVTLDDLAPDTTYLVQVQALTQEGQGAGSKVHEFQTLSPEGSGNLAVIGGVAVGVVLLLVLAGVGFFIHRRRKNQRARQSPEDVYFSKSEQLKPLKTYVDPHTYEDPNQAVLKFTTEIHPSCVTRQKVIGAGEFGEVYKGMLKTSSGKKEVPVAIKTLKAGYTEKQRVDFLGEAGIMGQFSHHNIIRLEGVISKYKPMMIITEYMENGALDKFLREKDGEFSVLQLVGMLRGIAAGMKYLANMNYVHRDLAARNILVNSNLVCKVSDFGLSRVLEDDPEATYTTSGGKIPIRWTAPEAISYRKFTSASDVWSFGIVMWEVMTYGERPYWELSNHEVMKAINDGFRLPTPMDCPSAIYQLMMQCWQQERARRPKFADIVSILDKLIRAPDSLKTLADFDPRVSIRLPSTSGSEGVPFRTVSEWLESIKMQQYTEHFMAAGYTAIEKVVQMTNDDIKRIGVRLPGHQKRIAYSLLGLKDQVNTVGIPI
Format: binding
Settings: EPHA2; 10 μM
Quantity Kind: Percent control

1) Cc1ccc(NC(=O)c2ccc(CN3CCN(C)CC3)cc2)cc1Nc1nccc(-c2cccnc2)[n+]1[Pt-2]1([Cl])[NH2+]C2CCCCC2[NH2+]1 (stereo not shown) [1b, oxaliplatin-imatinib] :: 99%

Task: Look up Percent control for this molecule: COc1cc2c(Nc3ccc(Br)cc3F)[n+]([Pt-2]3([Cl])[NH2+]C4CCCCC4[NH2+]3)cnc2cc1OCC1CCN(C)CC1 (stereo not shown) [3b, oxaliplatin-vandetanib]
Output: 43%

Task: Another molecule to look at: C#Cc1cccc(Nc2c3cc(OCCOC)c(OCCOC)cc3nc[n+]2[Pt@SP2-2]([NH3+])([NH3+])[Cl])c1 [2a, cisplatin-erlotinib]
Output: 93%

Task: Another molecule to look at: Cc1ccc(NC(=O)c2ccc(CN3CCN(C)CC3)cc2)cc1Nc1nccc(-c2cccnc2)n1 [Imatinib, reference compound]
Output: 100%

###

Below, each of the molecules is paired with its reported Percent control value.
Target: FGFR2 (Homo sapiens, UniProt P21802)
Sequence (P21802 22-821): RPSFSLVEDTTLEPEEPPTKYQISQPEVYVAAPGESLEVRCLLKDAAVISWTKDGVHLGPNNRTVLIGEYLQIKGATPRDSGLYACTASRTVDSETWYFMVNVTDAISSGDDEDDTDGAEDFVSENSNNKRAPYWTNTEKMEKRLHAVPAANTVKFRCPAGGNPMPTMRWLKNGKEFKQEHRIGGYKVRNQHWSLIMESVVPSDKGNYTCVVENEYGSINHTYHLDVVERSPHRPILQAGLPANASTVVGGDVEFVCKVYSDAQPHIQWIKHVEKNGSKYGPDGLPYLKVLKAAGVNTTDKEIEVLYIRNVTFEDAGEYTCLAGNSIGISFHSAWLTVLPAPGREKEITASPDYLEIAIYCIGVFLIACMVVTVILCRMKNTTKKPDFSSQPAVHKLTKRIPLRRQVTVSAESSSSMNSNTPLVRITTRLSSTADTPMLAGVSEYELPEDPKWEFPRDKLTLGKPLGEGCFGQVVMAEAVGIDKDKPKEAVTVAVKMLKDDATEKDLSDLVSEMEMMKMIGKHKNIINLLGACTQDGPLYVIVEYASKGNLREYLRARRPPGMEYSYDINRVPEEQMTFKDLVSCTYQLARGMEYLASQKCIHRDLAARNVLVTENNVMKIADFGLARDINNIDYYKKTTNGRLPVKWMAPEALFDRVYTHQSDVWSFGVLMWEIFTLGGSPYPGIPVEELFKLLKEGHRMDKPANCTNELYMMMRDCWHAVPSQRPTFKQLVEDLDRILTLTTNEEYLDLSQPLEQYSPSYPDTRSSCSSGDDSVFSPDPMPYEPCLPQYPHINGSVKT
Settings: 10 μM
Hi! Could you send only the number? It should be in %, unit omitted.

In the examples that follow, each entry is paired with its recorded Percent control.
1) Cc1ccc(NC(=O)c2ccc(CN3CCN(C)CC3)cc2)cc1Nc1nccc(-c2cccnc2)[n+]1[Pt-2]1([Cl])[NH2+]C2CCCCC2[NH2+]1 (stereo not shown) :: 100
2) C#Cc1cccc(Nc2c3cc(OCCOC)c(OCCOC)cc3nc[n+]2[Pt@SP2-2]([NH3+])([NH3+])[Cl])c1 [2a, cisplatin-erlotinib] :: 91
3) COc1cc2c(Nc3ccc(Br)cc3F)[n+]([Pt-2]3([Cl])[NH2+]C4CCCCC4[NH2+]3)cnc2cc1OCC1CCN(C)CC1 (stereo not shown) :: 67

Now take the following molecule into account.
Task: # get_value(readout= Percent control, system= FGFR2 (Homo sapiens, UniProt P21802)) for Cc1ccc(NC(=O)c2ccc(CN3CCN(C)CC3)cc2)cc1Nc1nccc(-c2cccnc2)n1 [Imatinib, reference compound]
Output: 100

Source listed as paper PMC4858680.
